Listing of entries alongside the reported IC50.
# measurement-protocol: Inhibition of LPS-stimulated NO release in rat cortical microglial cells assessed as nitrite accumulation after 48 hrs
# Format: functional
# condition-details: Microglia

Look over these answered cases.
{"compound": "C=C[C@@H]1CN2CC[C@]3(C(=O)Nc4ccccc43)[C@@H]2C[C@@H]1/C(=C\\OC)C(=O)O [18,19-DEHYDROCORYNOXINIC ACID B]", "result": "> 100 µM"}
{"compound": "C=C[C@H]1CN2CC[C@]3(C(=O)Nc4ccccc43)[C@@H]2C[C@@H]1/C(=C\\OC)C(=O)OC", "result": "15.7 µM"}
{"compound": "C=C[C@H]1CN2CC[C@@]3(C(=O)Nc4ccccc43)[C@@H]2C[C@@H]1/C(=C\\OC)C(=O)OC", "result": "13.7 µM"}
{"compound": "CC[C@H]1CN2CC[C@]3(C(=O)Nc4ccccc43)[C@@H]2C[C@@H]1/C(=C\\OC)C(=O)OC", "result": "18.5 µM"}
{"compound": "CC[C@H]1CN2CC[C@@]3(C(=O)Nc4ccccc43)[C@@H]2C[C@@H]1/C(=C\\OC)C(=O)OC", "result": "19 µM"}

Query "Oc1ccc(/C=C/c2cc(O)cc(O)c2)cc1" yields IC50 of 11.5 µM

For this compound ( "C=C[C@@H]1CN2CC[C@@]3(C(=O)Nc4ccccc43)[C@@H]2C[C@@H]1/C(=C\OC)C(=O)O" ), measured IC50 is > 100 µM

Looking up C=C[C@H]1C(O[C@@H]2O[C@H](CO)[C@@H](O)[C@H](O)[C@H]2O)OC=C2C(=O)N3CCc4c([nH]c5ccccc45)[C@@H]3C[C@H]21 (stereo partly drawn) [VINCOSIDE LACTAM] , I found its IC50 recorded as 16.4 µM
